Population Mitotic Cells (%) for assorted compounds
test system: Fibroblast; experiment: Multiplex assay against human fibroblast; type: toxicity, cell-based; details: 12 h, 10 µM, compound concentration 10 uM, replicate 2
Numeric only. Scale: %

Field: example entries. Status: answers known.
CN[C@@H](C)C(=O)N[C@H](C(=O)N1CCC[C@H]1C(=O)Nc1snnc1-c1ccccc1)C1CCCCC1 ... 75
COC[C@@H](c1ccc(C(F)(F)F)cc1)N1CCN(C2(C)CCN(C(=O)c3c(C)ncnc3C)CC2)C[C@@H]1C.O=C(O)/C=C\C(=O)O [VICRIVIROC MALEATE] ... 66

input: Please look up its Population Mitotic Cells (%): CC(C)c1noc(N2CCC(COc3ccc(-c4ccc(S(C)(=O)=O)cc4)nc3)CC2)n1
output: 64

input: Please give the result for COc1ccccc1N1CCN(C[C@@H](C(=O)NC(C)(C)C)c2ccccc2)CC1.Cl.Cl too.
output: 51

input: Please give the result for Cc1cnc(-c2cc(N3CCN(C(=O)CCS(C)(=O)=O)CC3)ncc2Cl)c(C)c1 too.
output: 73
